biological target: BRAF V600E (Homo sapiens, UniProt P15056+Q96SW2, V600E); construct: knock-in of the HiBiT tag to the endogenous BRAF V600E locus; host or cells: A375.10 (A375 clonal line, CRISPR HiBiT knock-in at the endogenous BRAF V600E locus); assay: BRAF V600E HiBiT Degradation Assay; format: cell-based; conditions: A375.10 cells, BRAF V600E, 2 hours; residual protein remaining
Sequence (P15056 whole entry V600E): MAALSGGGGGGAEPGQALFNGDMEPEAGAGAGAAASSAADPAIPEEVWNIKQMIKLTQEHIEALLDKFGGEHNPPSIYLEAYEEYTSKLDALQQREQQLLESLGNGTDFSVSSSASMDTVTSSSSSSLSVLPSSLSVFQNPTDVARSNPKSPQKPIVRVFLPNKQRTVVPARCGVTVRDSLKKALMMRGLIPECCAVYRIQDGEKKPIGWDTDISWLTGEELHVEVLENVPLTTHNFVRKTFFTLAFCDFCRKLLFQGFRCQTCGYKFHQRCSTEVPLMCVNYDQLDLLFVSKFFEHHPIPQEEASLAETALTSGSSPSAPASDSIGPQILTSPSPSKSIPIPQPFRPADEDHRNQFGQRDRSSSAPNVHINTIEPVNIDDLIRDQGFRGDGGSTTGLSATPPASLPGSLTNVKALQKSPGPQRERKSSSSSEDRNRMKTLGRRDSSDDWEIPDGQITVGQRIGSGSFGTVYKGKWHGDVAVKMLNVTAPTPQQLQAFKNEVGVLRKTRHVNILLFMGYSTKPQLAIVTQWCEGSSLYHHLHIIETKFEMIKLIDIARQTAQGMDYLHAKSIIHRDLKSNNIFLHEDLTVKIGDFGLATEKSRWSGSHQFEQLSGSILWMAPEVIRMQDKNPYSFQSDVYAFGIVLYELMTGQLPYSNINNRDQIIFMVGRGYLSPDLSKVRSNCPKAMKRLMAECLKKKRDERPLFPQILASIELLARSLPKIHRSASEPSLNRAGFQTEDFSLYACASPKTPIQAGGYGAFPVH
Sequence (Q96SW2 whole entry): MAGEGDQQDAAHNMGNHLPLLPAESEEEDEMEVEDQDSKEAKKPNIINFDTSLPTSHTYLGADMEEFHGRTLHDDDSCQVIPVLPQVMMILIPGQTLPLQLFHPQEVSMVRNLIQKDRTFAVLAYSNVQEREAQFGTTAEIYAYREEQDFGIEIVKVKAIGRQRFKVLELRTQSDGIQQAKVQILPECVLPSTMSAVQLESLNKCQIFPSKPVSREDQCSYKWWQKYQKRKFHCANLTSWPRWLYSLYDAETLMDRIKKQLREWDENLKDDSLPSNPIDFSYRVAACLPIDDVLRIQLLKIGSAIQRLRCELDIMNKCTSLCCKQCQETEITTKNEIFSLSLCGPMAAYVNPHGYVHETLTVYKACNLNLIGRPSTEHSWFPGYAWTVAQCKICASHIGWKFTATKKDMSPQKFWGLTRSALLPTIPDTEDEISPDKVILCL
Sequence (Q16531 whole entry partner): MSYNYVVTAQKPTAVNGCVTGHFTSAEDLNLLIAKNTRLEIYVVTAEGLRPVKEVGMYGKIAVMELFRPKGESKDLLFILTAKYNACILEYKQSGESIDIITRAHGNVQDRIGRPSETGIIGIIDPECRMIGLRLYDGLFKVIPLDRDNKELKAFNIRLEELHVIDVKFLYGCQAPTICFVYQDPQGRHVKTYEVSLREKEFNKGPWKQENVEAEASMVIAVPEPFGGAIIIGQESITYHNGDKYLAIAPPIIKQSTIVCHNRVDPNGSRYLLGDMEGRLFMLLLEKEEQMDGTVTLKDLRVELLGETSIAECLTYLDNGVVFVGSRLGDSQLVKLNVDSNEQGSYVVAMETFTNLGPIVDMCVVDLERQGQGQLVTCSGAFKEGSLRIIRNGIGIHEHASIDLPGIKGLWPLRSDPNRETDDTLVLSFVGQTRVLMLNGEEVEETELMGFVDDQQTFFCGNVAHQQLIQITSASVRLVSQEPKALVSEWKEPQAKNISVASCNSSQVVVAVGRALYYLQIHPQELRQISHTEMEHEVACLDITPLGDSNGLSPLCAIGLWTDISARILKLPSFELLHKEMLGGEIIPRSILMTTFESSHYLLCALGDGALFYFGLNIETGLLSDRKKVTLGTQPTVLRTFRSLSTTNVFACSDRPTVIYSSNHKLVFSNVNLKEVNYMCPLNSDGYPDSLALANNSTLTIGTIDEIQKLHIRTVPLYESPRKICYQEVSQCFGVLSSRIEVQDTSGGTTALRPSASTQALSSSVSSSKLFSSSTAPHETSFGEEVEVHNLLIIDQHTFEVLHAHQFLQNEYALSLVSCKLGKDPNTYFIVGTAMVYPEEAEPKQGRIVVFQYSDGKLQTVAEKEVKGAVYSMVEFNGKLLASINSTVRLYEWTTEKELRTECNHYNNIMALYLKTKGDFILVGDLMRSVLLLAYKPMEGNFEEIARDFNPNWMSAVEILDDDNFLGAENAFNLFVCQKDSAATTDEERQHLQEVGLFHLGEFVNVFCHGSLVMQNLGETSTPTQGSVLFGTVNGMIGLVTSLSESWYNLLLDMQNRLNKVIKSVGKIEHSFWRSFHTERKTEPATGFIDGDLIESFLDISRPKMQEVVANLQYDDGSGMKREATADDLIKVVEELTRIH
assay.readout: HiBiT-Degradation A375.10 BRAF 2 hours Emax

Examples with their reported HiBiT-Degradation A375.10 BRAF 2 hours Emax follow.
Endpoint output: HiBiT-Degradation A375.10 BRAF 2 hours Emax of CCN(C)S(=O)(=O)Nc1ccc(F)c(Oc2ccc3ncn([C@H]4COC5(CCN(C6CC(c7ccc(NC8CCC(=O)NC8=O)cc7F)C6)CC5)C4)c(=O)c3c2)c1C#N (single isomer, unassigned) . Value?
*** (<=50%)

Endpoint output: HiBiT-Degradation A375.10 BRAF 2 hours Emax of CCN(C)S(=O)(=O)Nc1ccc(F)c(Oc2ccc3ncn(CCC4CCN(C5CCC(c6cc7c(cc6F)c(N6CCC(=O)NC6=O)nn7C)CC5)CC4)c(=O)c3c2)c1C#N (single isomer, unassigned) . Value?
** (<90% and >50%)

Endpoint output: HiBiT-Degradation A375.10 BRAF 2 hours Emax of CCN(C)S(=O)(=O)Nc1ccc(F)c(Oc2ccc3ncc(C4CC5(C4)CN(C4CCC(c6cc7c(cc6F)c(N6CCC(=O)NC6=O)nn7C)CC4)C5)nc3c2)c1C#N (single isomer, unassigned) . Value?
*** (<=50%)

Endpoint output: HiBiT-Degradation A375.10 BRAF 2 hours Emax of CCN(C)S(=O)(=O)Nc1ccc(F)c(Oc2ccc3ncn([C@@H]4C[C@@H]5CN(C6CCC(c7cc8c(cc7F)c(N7CCC(=O)NC7=O)nn8C)CC6)C[C@@H]5C4)c(=O)c3c2)c1C#N (single isomer, unassigned) . Value?
** (<90% and >50%)

Endpoint output: HiBiT-Degradation A375.10 BRAF 2 hours Emax of CCN(C)S(=O)(=O)Nc1ccc(F)c(Oc2ccc3ncc(CCC4CCN(C5CCC(c6ccc(NC7CCC(=O)NC7=O)cc6F)CC5)CC4)nc3c2)c1C#N (single isomer, unassigned) . Value?
*** (<=50%)

Endpoint output: HiBiT-Degradation A375.10 BRAF 2 hours Emax of CCN(C)S(=O)(=O)Nc1ccc(F)c(Oc2ccc3ncn(C4CCC5(CC4)CCN(C4CCC(c6cc7c(cc6F)c(N6CCC(=O)NC6=O)nn7C)CC4)CC5)c(=O)c3c2)c1C#N (single isomer, unassigned) . Value?
*** (<=50%)

Endpoint output: HiBiT-Degradation A375.10 BRAF 2 hours Emax of CCN(C)S(=O)(=O)Nc1ccc(F)c(Oc2ccc3ncn(C4CC5(CCN(C6CCC(c7cc8c(cc7F)c(N7CCC(=O)NC7=O)nn8C)CC6)C5)C4)c(=O)c3c2)c1C#N (single isomer, unassigned) . Value?
** (<90% and >50%)

Endpoint output: HiBiT-Degradation A375.10 BRAF 2 hours Emax of CCN(C)S(=O)(=O)Nc1ccc(F)c(Oc2ccc3ncn([C@@H]4CO[C@@]5(CCN(C6CCC(c7cc8c(cc7F)c(N7CCC(=O)NC7=O)nn8C)CC6)C5)C4)c(=O)c3c2)c1C#N (single isomer, unassigned) . Value?
*** (<=50%)

Query compound follows.
Endpoint output: HiBiT-Degradation A375.10 BRAF 2 hours Emax of Cn1nc(N2CCC(=O)NC2=O)c2cc(F)c(C3CCC(N4CCC5(CC4)CC(c4cnc6ccc(Oc7c(F)ccc(NS(=O)(=O)C8CCCC8)c7C#N)cc6n4)C5)CC3)cc21 (single isomer, unassigned) . Value?
*** (<=50%)

====

test: Pharmacokinetics in female BALB/c nude mice bearing A375 xenografts, 1 day dosing (PK and PD study): plasma, tumor and brain concentrations, AUC; type: in vivo; conditions: mouse, plasma, po, 1 mg/kg, 1 mg/kg p.o. TID × 1 day; post 1st dose; 4 h; read-out: Mean Concentration in Plasma ± SEM
assay.readout: concentration at 4 h
Remember to put the unit after the number in your answer.

Endpoint output: concentration at 4 h of CCN(C)S(=O)(=O)Nc1ccc(F)c(Oc2ccc3ncn(C4CC5(CCN(C6CC7(C6)CN(c6cc8c(cc6F)c(N6CCC(=O)NC6=O)nn8C)C7)CC5)C4)c(=O)c3c2)c1C#N (stereo not shown) [Compound 141] . Value?
699 ng/mL

====

Give measured concentration at 4 h for each item. Keep answers brief.
Assay: Pharmacokinetics after 21 days dosing in the efficacy study (plasma, tumor and brain concentrations; plasma AUC at steady state), Example 14
Type: in vivo, female BALB/c nude mice
Conditions: mouse, plasma, po; 1.5 mg/kg p.o. BID x 21 days; 4 h; mean ± SEM; read-out: Concentration in Plasma
Experimental: Agents were tested in the A375 human melanoma xenografts. […] Dabrafenib, Compound 26 and Compound 141 in female BALB/c nude mice plasma (K2-EDTA), tumor and brain homogenate were analyzed by LC-MS/MS (Triple Quad 6500+ Low Mass). […]
The response must be a number in µg/mL with no trailing unit.

Endpoint output: concentration at 4 h of "CCN(C)S(=O)(=O)Nc1ccc(F)c(Oc2ccc3ncn([C@H]4COC5(CCN(C6CC7(C6)CN(c6cc8c(cc6F)c(N6CCC(=O)NC6=O)nn8C)C7)CC5)C4)c(=O)c3c2)c1C#N" . Value?
2.17

Endpoint output: concentration at 4 h of CCN(C)S(=O)(=O)Nc1ccc(F)c(Oc2ccc3ncn(C4CC5(CCN(C6CC7(C6)CN(c6cc8c(cc6F)c(N6CCC(=O)NC6=O)nn8C)C7)CC5)C4)c(=O)c3c2)c1C#N (centres unmarked) . Value?
0.95

====

test: Pharmacokinetics in female BALB/c nude mice bearing A375 xenografts, 1 day dosing (PK and PD study): plasma, tumor and brain concentrations, AUC; format: in vivo; settings: mouse, tumor, po, 1.5 mg/kg, 1.5 mg/kg p.o. BID × 1 day; post 2nd dose; 48 h; read-out: Mean Concentration in Tumor ± SEM
assay.readout: concentration at 48 h (ng/g)
The response must be a number in ng/g with no trailing unit.

Endpoint output: concentration at 48 h of "CCN(C)S(=O)(=O)Nc1ccc(F)c(Oc2ccc3ncn([C@H]4COC5(CCN(C6CC7(C6)CN(c6cc8c(cc6F)c(N6CCC(=O)NC6=O)nn8C)C7)CC5)C4)c(=O)c3c2)c1C#N" . Value?
5.63

====

assay: Example 9 pharmacokinetics assay for the PK and PD study Part I, II and III (plasma, tumor, liver); type: in vivo, BALB/c nude mice; conditions: mouse, liver, po; 100 mg/kg, p.o., single dose; 6 h; ± SEM; read-out: Mean Concentration in Liver
assay.readout: concentration at 6 h (ng/g)
The response must be a number in ng/g with no trailing unit.

Endpoint output: concentration at 6 h of CC(C)(C)c1nc(-c2cccc(NS(=O)(=O)c3c(F)cccc3F)c2F)c(-c2ccnc(N)n2)s1 [Dabrafenib, dabrafenib, reference compound] . Value?
1010

====

experiment: Pharmacokinetics in female BALB/c nude mice bearing A375 xenografts, 1 day dosing (PK and PD study): plasma, tumor and brain concentrations, AUC; assay type: in vivo; settings: mouse, tumor, po; 6 mg/kg p.o. QD × 1 day; read-out: Tumor AUC at 24 hours, Average
assay.readout: AUC at 24 h (ng·h/mL)
The response must be a number in ng·h/mL with no trailing unit.

Endpoint output: AUC at 24 h of "CCN(C)S(=O)(=O)Nc1ccc(F)c(Oc2ccc3ncn([C@H]4COC5(CCN(C6CC7(C6)CN(c6cc8c(cc6F)c(N6CCC(=O)NC6=O)nn8C)C7)CC5)C4)c(=O)c3c2)c1C#N" . Value?
25800

====

assay: Example 9 pharmacokinetics assay for the PK and PD study Part I, II and III (plasma, tumor, liver); format: in vivo, BALB/c nude mice; details: mouse, tumor, po; 100 mg/kg, p.o., single dose; 24 h; ± SEM; read-out: Mean Concentration in Tumor
assay.readout: concentration at 24 h (ng/g)
The response must be a number in ng/g with no trailing unit.

Endpoint output: concentration at 24 h of CC(C)(C)c1nc(-c2cccc(NS(=O)(=O)c3c(F)cccc3F)c2F)c(-c2ccnc(N)n2)s1 [Dabrafenib, dabrafenib, reference compound] . Value?
1.87

====

tested on: A375 human melanoma xenografts; experiment: Example 6 efficacy study in A375 human melanoma xenografts (tumor volume, T/C, TGI); format: in vivo, BALB/c nude mice; settings: 10 mg/kg, p.o., BID × 21 days; day 7; Mean ± SEM
Give measured Tumor volume for each item. Keep answers brief.

Endpoint output: Tumor volume of CCN(C)S(=O)(=O)Nc1ccc(F)c(Oc2ccc3ncn(C4CC5(CCN(C6CCC(c7cc8c(cc7F)c(N7CCC(=O)NC7=O)nn8C)CC6F)CC5)C4)c(=O)c3c2)c1C#N (single isomer, unassigned) . Value?
62 ± 7 mm^3

Endpoint output: Tumor volume of CCN(C)S(=O)(=O)Nc1ccc(F)c(Oc2ccc3ncc([C@@H]4COC5(CCN(C6CCC(c7cc8c(cc7F)c(N7CCC(=O)NC7=O)nn8C)CC6)CC5)C4)nc3c2)c1C#N (single isomer, unassigned) . Value?
90 ± 14 mm^3

Endpoint output: Tumor volume of Cn1nc(N2CCC(=O)NC2=O)c2cc(F)c(C3CCC(N4CCC5(CC4)CC(n4cnc6ccc(Oc7c(F)ccc(NS(=O)(=O)C8CCCC8)c7C#N)cc6c4=O)C5)CC3)cc21 (single isomer, unassigned) . Value?
97 ± 6 mm^3

Endpoint output: Tumor volume of CCN(C)S(=O)(=O)Nc1ccc(F)c(Oc2ccc3ncn([C@H]4COC5(CCN(C6CC(c7cc8c(cc7F)c(N7CCC(=O)NC7=O)nn8C)C6)CC5)C4)c(=O)c3c2)c1C#N (single isomer, unassigned) . Value?
66 ± 6 mm^3
